melting point values by entry

Example entries and their recorded answers appear below.
# Molecule, melting point
rows = [
    ("C[C@@H]1OCCN(c2nc(N3CCOCC3)nc(-n3c(C(F)F)nc4ccccc43)n2)[C@@H]1C (relative stereo) [compound 13]", "207 to 210 °C"),
    ("C[C@@H]1OCCN(c2nc(N3CCOCC3)nc(-n3c(C(F)F)nc4ccc(N)cc43)n2)[C@@H]1C (relative stereo) [compound 33]", "220 to 222 °C (dec.)"),
    ("C[C@@H]1OCCN(c2nc(N3CCOCC3)nc(-n3c(C(F)F)nc4cc(O)ccc43)n2)[C@@H]1C (relative stereo) [compound 37]", "170 to 175 °C (dec.)"),
]

Query: Retrieve melting point measured for COC(=O)Nc1nc2ccccc2n1-c1nc(N2CCOCC2)nc(N2CCOCC2)n1 [compound 29] and print it.
Response: 206 to 209 °C

Query: Retrieve melting point measured for C[C@@H]1OCCN(c2nc(N3CCOCC3)nc(-n3c(C(F)F)nc4ccccc43)n2)[C@H]1C (relative stereo) [compound 14] and print it.
Response: 135 to 138 °C

Query: Retrieve melting point measured for CC1(C)CN(c2nc(N3CCOCC3)nc(-n3c(C(F)F)nc4c(O)cccc43)n2)CCO1 [compound 38] and print it.
Response: 228 to 231 °C (dec.)
